Numbers sourced from PubChem BioAssay (NCI).

- EXPERIMENTAL PROTOCOL: NCI Yeast Anticancer Drug Screen. Data for the mlh1 rad18 strain (AID 175)
- SETUP CONDITIONS: S. cerevisiae mlh1 rad18 strain growth inhibition; at 50.0 µM; hits give high values
The panel holds about 79,000 compounds, 15% with a hit somewhere; the sample as a whole holds those more often. Where a SMILES comes first, the peptide text is derived from it.
MEASUREMENT LABEL: growth inhibition (%)
Unit % implied. Number only.

Example entries and their recorded answers appear below.
| COMPOUND | UNITS OF MEASURE | OBSERVED MEASUREMENT |
| --- | --- | --- |
| CCC(=O)Nc1cccc(OC(=O)NC2CCCCC2)c1 | % | 11.1 |
| CNC(=O)OCc1nc(SC(C)C)n(C)c1COC(=O)NC | % | -28.1 |
| Cc1ccc(-c2cc(O)c3nc4ccccc4n3c2)cc1 | % | -24.1 |

I would be grateful if you could share the reported growth inhibition for CCOC(=O)CCC(C(=O)c1cccnc1)c1ccccn1 (stereo not given) .
-7.05

I would be grateful if you could share the reported growth inhibition for "CCCCCCOC(=O)C[C@H]1C[C@H](C(=O)OCCCCCC)C1(C)C" .
-7.3

I would be grateful if you could share the reported growth inhibition for "CCOC(=O)c1sc(Nc2cc(Cl)ccc2Cl)nc1C" .
-15.1

I would be grateful if you could share the reported growth inhibition for "CC/C(SC)=[N+](\C)[O-]" .
4.25

I would be grateful if you could share the reported growth inhibition for CN(C)CC1CC(O)C(CN(C)C)CC1O (stereo not given) .
-8.95

I would be grateful if you could share the reported growth inhibition for "O=c1oc2ccccc2cc1CCBr" .
-8.05

I would be grateful if you could share the reported growth inhibition for CC1(C2(C)Nc3ccccc3O2)Nc2ccccc2O1 (stereo not given) .
9.05

I would be grateful if you could share the reported growth inhibition for O=C1OC(=O)C2C3C=CC(CC3)C12 (stereo not given) .
-0.1

I would be grateful if you could share the reported growth inhibition for NC(=O)C(=O)N/N=C1\C(=O)N(c2ccc(Cl)cc2Cl)C(=O)C1C(=O)Nc1ccc(Cl)cc1Cl (stereo not given) .
-16.3

I would be grateful if you could share the reported growth inhibition for "CC(=O)Nc1c(C)ccc([N+](=O)[O-])c1C" .
13.5

I would be grateful if you could share the reported growth inhibition for COC(C)CCOC(=O)c1ccc(C(C)C)cc1 (stereo not given) .
1.65

I would be grateful if you could share the reported growth inhibition for "O=C1Oc2ccccc2C(=O)Oc2ccccc2C(=O)Oc2ccccc2C(=O)Oc2ccccc21" .
-29.6

I would be grateful if you could share the reported growth inhibition for "COC(C(=O)CN(C)C)(c1ccccc1)c1ccccc1" .
23.5

I would be grateful if you could share the reported growth inhibition for "CC1(c2cccc[n+]2Cc2ccc(Cl)c(Cl)c2)OCCO1" .
14.2

I would be grateful if you could share the reported growth inhibition for "CO[C@@]12C[C@@H](C)C3=CCC(C)=C3CC1=C(C)C(=O)O2" .
-68.3

I would be grateful if you could share the reported growth inhibition for "NCC(O)CN" .
1.45

I would be grateful if you could share the reported growth inhibition for CCC(C)C(N)C(=O)N1CCCC1C(=O)O (stereo not drawn) (H-Ile-Pro-OH; configuration not given here) .
-3.15

I would be grateful if you could share the reported growth inhibition for CC1C(=O)OC2CC[N+]3(C(=O)C(F)(F)F)CC4OC4(COC(=O)C(C)(O)C1(C)O)C23 (stereo not given) .
-8.9
